- assayed target: neutrophil collagenase (MMP-8) (Homo sapiens)
- Construct: enzymatic activity of the catalytic domains of human stromelysin and of neutrophil collagenase; made in house
- Sequence (P22894 100-262 limits assumed): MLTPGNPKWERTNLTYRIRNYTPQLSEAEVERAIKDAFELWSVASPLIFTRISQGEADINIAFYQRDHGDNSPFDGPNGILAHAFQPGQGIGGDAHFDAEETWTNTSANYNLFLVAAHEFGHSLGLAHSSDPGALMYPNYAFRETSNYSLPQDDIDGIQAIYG
- procedure text: Enzymatic activity of the catalytic domain of neutrophil collagenase (fluorogenic substrate)
- Type: biochemical
- condition parameters: pH=6.5, 15 min preincubation, fluorescence 328 nm (ex)/393 nm (em), read-out: Neutr. collagenase IC50
assay readout: IC50 (nM)

O=C(O)C(Cc1c[nH]c2ccc(F)cc12)NS(=O)(=O)c1ccc(-c2ccc(N3CCCC3)cc2)cc1 (racemic): 2
O=C(O)C1CCCCN1S(=O)(=O)c1ccc(-n2nccn2)cc1 (racemic): 600
O=C(O)[C@H](CCC(=O)N1CCc2ccccc21)NS(=O)(=O)c1ccc(-c2ccccc2)cc1: 20
CS(=O)(=O)CC[C@@H](NS(=O)(=O)c1ccc(-c2ccc(Cl)cc2)cc1)C(=O)O: 7
CNC(=O)c1ccc(NC(=O)CC[C@H](NS(=O)(=O)c2ccc(-c3ccccc3)cc2)C(=O)O)cc1: 20

A: O=C(O)C[C@H](NS(=O)(=O)c1ccc(-c2ccc(Cl)cc2)cc1)C(=O)OCc1ccccc1
B: O=C(O)CC[C@H](NS(=O)(=O)c1ccc(-c2ccc(N3CCCC3)cc2)cc1)C(=O)O
// returns A or B , whichever has the lower IC50 Lab log: write the label of the selected item as the result.
B
